- target: MAST1, Q9Y2H9
- Sequence (Q9Y2H9 962-1065): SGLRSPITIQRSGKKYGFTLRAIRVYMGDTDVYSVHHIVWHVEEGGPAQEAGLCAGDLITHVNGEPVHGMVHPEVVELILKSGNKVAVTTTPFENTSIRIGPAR
- assay-text: holdup assay
- Design: key: below the threshold = too weak to quantify, mostly under pKd 3.1 to 4
- test-parameters: plain residues with an end cap or a label only (N-terminal biotin on a linker: ahx)
measured-attribute: pKd

Below, each entry is followed by its recorded pKd result.
binder	pKd
LSDPSVSTVV [GRIN1, Q05586;Q05586-2]	below the threshold
SDSSGQEYSL [KCTD3, Q9Y597]	below the threshold
NRKREIFSNF [NHERF2, Q15599]	below the threshold
PSASCAVTAA [PDLIM4, P50479;P50479-2]	below the threshold
RAVEEEESRF [PSCDBP, O60759]	4.02

Turning to the following binder.
Noted for ESLLLGPSNF [SHROOM4, Q9ULL8] : its pKd reads below the threshold
